Data origin: paper PMC7252619

# Test system: human PBMCs (responder cells) with RPMI1788 stimulator cells
# Method Summary: Mixed Lymphocyte Reaction (MLR, T cell assay), 3H-thymidine incorporation
# Assay type: cell-based
# Condition: Homo sapiens, RPMI-1788; mean of 4 independent measures; read-out: T-cell efficacy, MLR IC 50 (µM) Mean
# if measured IC50 < 4 µM: 1  # else: 0

Compound	Class Label
Cc1cc(C#N)cc(C)c1Oc1nc(Nc2ccc(C#N)cc2)nc(N)c1Br [Etravirine, reference compound]	0
Oc1c(Cl)cc(Cl)c(Cl)c1Cc1c(O)c(Cl)cc(Cl)c1Cl [Hexachlorophene, reference compound]	1
NC(=O)c1cccnc1 [Niacinamide, reference compound]	0
C[C@]12CC[C@@H]3c4ccc(O)cc4CC[C@H]3[C@@H]1CC[C@@H]2O [Estradiol, reference compound]	0
CCN(CC)Cc1cc(Nc2ccnc3cc(Cl)ccc23)ccc1O [Amodiaquine, reference compound]	0
Nc1ccc2cc3ccc(N)cc3nc2c1 [Proflavine, reference compound]	0
C=CC(=O)N1CCC[C@@H](n2nc(-c3ccc(Oc4ccccc4)cc3)c3c(N)ncnc32)C1 [Ibrutinib, reference compound]	1
N[C@@H](Cc1cc(I)c(Oc2cc(I)c(O)c(I)c2)c(I)c1)C(=O)O [Thyroxine, reference compound]	0

Please determine if N[C@@H](Cc1cc(I)c(Oc2ccc(O)c(I)c2)c(I)c1)C(=O)O [Triiodothyronine] is below 4 µM in terms of IC50.
0

Please state whether IC50 is below 4 µM for Cc1nc(Nc2ncc(C(=O)Nc3c(C)cccc3Cl)s2)cc(N2CCN(CCO)CC2)n1 [Dasatinib, reference compound]
1

Bench note: check whether Cc1ccc(C(=O)Nc2ccc(S(=O)(=O)O)c3cc(S(=O)(=O)O)cc(S(=O)(=O)O)c23)cc1NC(=O)c1cccc(NC(=O)Nc2cccc(C(=O)Nc3cc(C(=O)Nc4ccc(S(=O)(=O)O)c5cc(S(=O)(=O)O)cc(S(=O)(=O)O)c45)ccc3C)c2)c1 [Suramin, reference compound] shows IC50 below 4 µM
0

Hi there! Is IC50 for Nc1ncnc2c1ncn2[C@@H]1O[C@H](CO)[C@@H](O)[C@H]1O [Adenosine, reference compound] below 4 µM, do you know?
0

====

Each item that follows carries a reported % Enzyme Activity (relative to DMSO controls), Data 2.
# Subject Of Test: CK1d (Homo sapiens)
# Construct: purchased ReactionBiology
# Method Summary: Kinase activity test (ReactionBiology), % enzyme activity relative to DMSO
# Type: biochemical
# Condition: CK1d; 1 uM; replicate Data 2
Output spec: scalar in %, unitless text.

Known % Enzyme Activity (relative to DMSO controls), Data 2 results, listed for orientation:
Molecule	Unit Of Measurement	Experimental Value
O=C(O)c1cc(-c2ccc(F)cc2F)ccc1O	%	272.47
CN1CC(=O)N2[C@H](c3ccc4c(c3)OCO4)c3[nH]c4ccccc4c3C[C@@H]2C1=O	%	101.67
CN[C@H]1CC[C@@H](c2ccc(Cl)c(Cl)c2)c2ccccc21	%	107.11
O=c1[nH]cc(F)c(=O)[nH]1	%	103.69
CCCCC[C@H](O)/C=C/[C@H]1[C@H](O)CC(=O)[C@@H]1CCCCCCC(=O)O	%	99.74

Need % Enzyme Activity (relative to DMSO controls), Data 2, item CCCCNc1ccc(C(=O)OCCN(C)C)cc1
116.43

Find the recorded % Enzyme Activity (relative to DMSO controls), Data 2 belonging to COc1ccc2c(c1)c(CC(=O)O)c(C)n2C(=O)c1ccc(Cl)cc1 and report it.
102.21

Sample CCc1nc(N)nc(N)c1-c1ccc(Cl)cc1 — what was its % Enzyme Activity (relative to DMSO controls), Data 2?
92.18

Recorded % Enzyme Activity (relative to DMSO controls), Data 2 of CO[C@@]12[C@H](COC(N)=O)C3=C(C(=O)C(C)=C(N)C3=O)N1C[C@@H]1N[C@@H]12 , please.
96.28

====

# Subject Of Test: NEK2 (Homo sapiens)
# Construct: purchased ReactionBiology
# Sequence (P51955 1-445): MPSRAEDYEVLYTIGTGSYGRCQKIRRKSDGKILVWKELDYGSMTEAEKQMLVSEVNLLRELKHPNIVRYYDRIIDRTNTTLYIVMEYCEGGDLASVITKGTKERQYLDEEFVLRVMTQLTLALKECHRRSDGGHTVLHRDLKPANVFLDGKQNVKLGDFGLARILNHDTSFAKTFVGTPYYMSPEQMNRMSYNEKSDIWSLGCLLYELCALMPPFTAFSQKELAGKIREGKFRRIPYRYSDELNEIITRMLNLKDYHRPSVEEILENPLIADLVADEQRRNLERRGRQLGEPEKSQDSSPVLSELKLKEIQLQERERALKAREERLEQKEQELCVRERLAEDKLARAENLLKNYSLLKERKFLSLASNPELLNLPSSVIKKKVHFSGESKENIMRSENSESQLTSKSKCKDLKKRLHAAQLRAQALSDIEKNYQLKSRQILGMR
# Method Summary: Kinase activity test (ReactionBiology), % enzyme activity relative to DMSO;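 as to % Enzyme Activity (relative to DMSO controls), Average: FDA-approved drugs chosen by structure-based repositioning, each screened at 10 or 1 µM for kinase activity, expressed as percent of DMSO controls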
# Format: biochemical
# Condition: NEK2; compound at 1 uM; average of Data 1 and Data 2
Listed here: items and their measured % Enzyme Activity (relative to DMSO controls), Average.
Output spec: scalar in %, unitless text.

1. OC[C@@H](O)[C@@H](O)[C@H](O)[C@H](O)CO 113.06
2. Cc1ccc(C(=O)c2ccc(CC(=O)O)n2C)cc1 115.23
3. c1coc(CNc2ncnc3[nH]cnc23)c1 107.09
4. Nc1nc2c(ncn2COC(CO)CO)c(=O)[nH]1 111.12

Here is the next item to consider.
Could you tell me which % Enzyme Activity (relative to DMSO controls), Average is on file for CC(=O)OCC1=C(C(=O)O)N2C(=O)[C@@H](NC(=O)Cc3cccs3)[C@H]2SC1 ?
98.03

====

# Subject Of Test: CK1d (Homo sapiens, UniProt P48730)
# Construct: purchased ReactionBiology
# Sequence (P48730 whole entry): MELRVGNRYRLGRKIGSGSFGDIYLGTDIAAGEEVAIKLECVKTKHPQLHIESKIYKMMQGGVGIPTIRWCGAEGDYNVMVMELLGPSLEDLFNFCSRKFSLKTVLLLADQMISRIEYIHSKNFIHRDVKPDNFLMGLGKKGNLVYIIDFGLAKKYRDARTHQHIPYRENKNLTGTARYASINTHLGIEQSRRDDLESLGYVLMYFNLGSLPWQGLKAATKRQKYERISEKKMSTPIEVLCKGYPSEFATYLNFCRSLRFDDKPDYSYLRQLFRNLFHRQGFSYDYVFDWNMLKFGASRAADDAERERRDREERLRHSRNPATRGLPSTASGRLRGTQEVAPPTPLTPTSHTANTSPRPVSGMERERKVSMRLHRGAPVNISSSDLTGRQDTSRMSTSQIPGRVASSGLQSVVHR
# Method Summary: Kinase activity test (ReactionBiology), % enzyme activity relative to DMSO
# Format: biochemical
# Condition: CK1d; 10 uM; replicate Data 1; read-out: % Enzyme Activity (relative to DMSO controls), Data 1
Listing of recorded remaining activity at 10 µM by entry.
Write the answer as a number in %, unit excluded.

Reference set (3 entries):
Compound	Experimental Value
O=C(O)c1ccccc1O	109
CCCc1nc(C)c2c(=O)[nH]c(-c3cc(S(=O)(=O)N4CCN(CC)CC4)ccc3OCC)nn12	107
C[C@]12CC[C@@H]3c4ccc(O)cc4CC[C@H]3[C@@H]1CC[C@@H]2O [Estradiol, reference compound]	98.7

Now for the compound whose remaining activity at 10 µM we want.
What reported remaining activity at 10 µM corresponds to Nc1ncnc2c1ncn2[C@@H]1O[C@H](CO)[C@@H](O)[C@H]1O [Adenosine, reference compound] on CK1d (Homo sapiens, UniProt P48730)?
51.1

====

Property: % Enzyme Activity (relative to DMSO controls), Data 2; scope: individual molecules
# Subject Of Test: NEK2 (Homo sapiens, UniProt P51955)
# Construct: purchased ReactionBiology
# Sequence (P51955 1-445): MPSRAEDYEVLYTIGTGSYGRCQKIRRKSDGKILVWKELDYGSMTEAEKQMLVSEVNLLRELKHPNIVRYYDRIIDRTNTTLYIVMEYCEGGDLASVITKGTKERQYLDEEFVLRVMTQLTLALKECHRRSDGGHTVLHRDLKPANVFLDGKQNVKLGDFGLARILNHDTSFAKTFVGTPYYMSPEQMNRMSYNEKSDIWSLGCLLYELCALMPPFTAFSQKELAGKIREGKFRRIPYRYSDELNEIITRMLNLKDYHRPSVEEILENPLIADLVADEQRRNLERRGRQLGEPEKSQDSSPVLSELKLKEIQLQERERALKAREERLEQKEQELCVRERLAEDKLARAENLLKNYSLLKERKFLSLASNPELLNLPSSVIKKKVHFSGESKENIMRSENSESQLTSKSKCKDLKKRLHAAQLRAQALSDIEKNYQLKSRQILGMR
# Method Summary: Kinase activity test (ReactionBiology), % enzyme activity relative to DMSO
# Format: biochemical
# Condition: NEK2; 1 uM; replicate Data 2
Reply with a number, then the unit it belongs to.

Known % Enzyme Activity (relative to DMSO controls), Data 2 results, listed for orientation:
Molecule	Subject Of Test	Experimental Value
N[C@H]1C(O)O[C@H](CO)[C@@H](O)[C@@H]1O (stereo partly drawn) [Glucosamine]	NEK2 (Homo sapiens, UniProt P51955)	85.75%
CCc1nc(N)nc(N)c1-c1ccc(Cl)cc1 [Pyrimethamine]	NEK2 (Homo sapiens, UniProt P51955)	104.49%
Cc1nnc(C(C)C)n1C1C[C@H]2CC[C@@H](C1)N2CC[C@H](NC(=O)C1CCC(F)(F)CC1)c1ccccc1 (stereo in doubt) [Maraviroc]	NEK2 (Homo sapiens, UniProt P51955)	101.63%

With those in mind, consider the next molecule.
For the molecule C[C@H](O)[C@H](O)[C@H]1CNc2nc(N)[nH]c(=O)c2N1 [Sapropterin] , what % Enzyme Activity (relative to DMSO controls), Data 2 is on record?
94.15%
